- Test Name: self-splicing fitness, log relative to wild type (ln ratio); higher = more splicing; Tetrahymena group I intron in knt gene, E. coli kanamycin selection, DiMSum; sequences stand for … in CUCUCU…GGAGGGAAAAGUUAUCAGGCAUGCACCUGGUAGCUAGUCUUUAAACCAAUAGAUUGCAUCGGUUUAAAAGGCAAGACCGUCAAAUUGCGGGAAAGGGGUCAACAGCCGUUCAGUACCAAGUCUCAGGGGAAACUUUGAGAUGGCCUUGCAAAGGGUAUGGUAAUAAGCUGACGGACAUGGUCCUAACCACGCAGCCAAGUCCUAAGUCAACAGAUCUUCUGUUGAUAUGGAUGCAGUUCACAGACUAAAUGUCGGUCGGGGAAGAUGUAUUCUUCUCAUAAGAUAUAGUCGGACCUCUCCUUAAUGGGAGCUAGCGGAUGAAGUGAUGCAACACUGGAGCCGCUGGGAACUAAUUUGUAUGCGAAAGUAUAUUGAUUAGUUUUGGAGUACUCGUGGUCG;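 further: selection with 25 µg/mL kanamycin versus none on LB agar overnight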
- Condition: 30 °C
Value Type: self-splicing fitness (ln)

- Construct Sequence: "GGGUAGCAAUAUUACGGAAG"
  Readout Value: -3.46

For the sequence shown here, AAAUAGCAAUAUUACGCCUU , give the reported self-splicing fitness (ln).
-0.206

For the sequence shown here, CAUAAGCAAUAUUACGUCUG , give the reported self-splicing fitness (ln).
-0.477

For the sequence shown here, GCUUAGCAAUAUUACGACGG , give the reported self-splicing fitness (ln).
-1.89

For the sequence shown here, CACUAGCAAUAUUACGAAAG , give the reported self-splicing fitness (ln).
-1.23

For the sequence shown here, CUGAAGCAAUAUUACGGUUC , give the reported self-splicing fitness (ln).
-3.05

For the sequence shown here, CAUCAGCAAUAUUACGGAGU , give the reported self-splicing fitness (ln).
-2.65

For the sequence shown here, UUAAAGCAAUAUUACGCUCA , give the reported self-splicing fitness (ln).
0.0308

For the sequence shown here, GUCUAGCAAUAUUACGAUAC , give the reported self-splicing fitness (ln).
0.218

For the sequence shown here, ACAGAGCAAUAUUACGCGAU , give the reported self-splicing fitness (ln).
-3.54

For the sequence shown here, AUCCAGCAAUAUUACGCCAU , give the reported self-splicing fitness (ln).
-3.28

For the sequence shown here, GAGAAGCAAUAUUACGAAUG , give the reported self-splicing fitness (ln).
-3.46

For the sequence shown here, GGCUAGCAAUAUUACGGAAG , give the reported self-splicing fitness (ln).
-1.13

----------
- Test Name: self-splicing fitness, log relative to wild type (ln ratio); higher = more splicing; Tetrahymena group I intron in knt gene, E. coli kanamycin selection, DiMSum; sequences stand for … in CUCUCU…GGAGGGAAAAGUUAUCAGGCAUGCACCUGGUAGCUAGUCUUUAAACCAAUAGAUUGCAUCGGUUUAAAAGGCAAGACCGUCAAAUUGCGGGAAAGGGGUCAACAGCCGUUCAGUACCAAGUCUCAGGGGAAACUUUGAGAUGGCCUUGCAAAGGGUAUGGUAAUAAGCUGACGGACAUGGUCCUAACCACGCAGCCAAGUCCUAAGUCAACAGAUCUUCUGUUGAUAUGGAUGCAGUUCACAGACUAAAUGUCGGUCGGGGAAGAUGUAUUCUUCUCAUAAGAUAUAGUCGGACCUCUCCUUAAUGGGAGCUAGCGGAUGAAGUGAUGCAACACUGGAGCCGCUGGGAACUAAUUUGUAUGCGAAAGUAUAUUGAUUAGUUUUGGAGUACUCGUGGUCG
- Condition: 30 °C
# self-splicing fitness (ln) per entry
Output: the number by itself.

For the sequence shown here, CGCUAGCAAUAUUACGAGGU , give the reported self-splicing fitness (ln).
-3.83

For the sequence shown here, GCCGAGCAAUAUUACGUCGG , give the reported self-splicing fitness (ln).
-4.39

----------
- Test Name: self-splicing fitness, log relative to wild type (ln ratio); higher = more splicing; Tetrahymena group I intron in knt gene, E. coli kanamycin selection, DiMSum; sequences stand for … in CUCUCU…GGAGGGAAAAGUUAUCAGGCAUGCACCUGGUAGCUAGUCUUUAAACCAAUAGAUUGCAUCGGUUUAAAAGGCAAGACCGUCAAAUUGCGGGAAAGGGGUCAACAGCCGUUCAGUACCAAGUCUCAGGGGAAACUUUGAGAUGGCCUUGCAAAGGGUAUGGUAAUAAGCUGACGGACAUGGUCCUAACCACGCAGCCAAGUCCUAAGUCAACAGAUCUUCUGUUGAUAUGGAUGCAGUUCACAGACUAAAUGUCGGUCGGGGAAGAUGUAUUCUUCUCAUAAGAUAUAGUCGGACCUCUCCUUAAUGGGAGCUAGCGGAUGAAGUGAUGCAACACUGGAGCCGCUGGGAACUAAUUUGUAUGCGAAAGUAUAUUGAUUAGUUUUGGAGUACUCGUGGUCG
- Condition: 37 °C
Please assign a class to every record based on measured self-splicing fitness (ln), with ranges bucket A: < -1; bucket B: ≥ -1 and < -0.6; bucket C: ≥ -0.6

- Construct Sequence: "AAUCAGCAAUAUUACGGUCA"
  Assigned Class: "bucket C"
- Construct Sequence: "AAUAAGCAAUAUUACGAGCA"
  Assigned Class: "bucket C"
- Construct Sequence: "UCAAAGCAAUAUUACGUAAG"
  Assigned Class: "bucket B"
- Construct Sequence: "ACUAAGCAAUAUUACGGCUA"
  Assigned Class: "bucket C"
- Construct Sequence: "GGACAGCAAUAUUACGACCU"
  Assigned Class: "bucket C"

Would you mind sorting UAGUAGCAAUAUUACGAGCA into the appropriate category?
bucket C

Would you mind sorting CUUUAGCAAUAUUACGGCUG into the appropriate category?
bucket C

Would you mind sorting CUCAAGCAAUAUUACGCGCC into the appropriate category?
bucket A

Would you mind sorting CGACAGCAAUAUUACGCUAC into the appropriate category?
bucket A

Would you mind sorting GUAAAGCAAUAUUACGUCAC into the appropriate category?
bucket A

Would you mind sorting GACCAGCAAUAUUACGAAAG into the appropriate category?
bucket A

Would you mind sorting CCAUAGCAAUAUUACGUGAG into the appropriate category?
bucket C

Would you mind sorting ACGGAGCAAUAUUACGAGGC into the appropriate category?
bucket A

Would you mind sorting UGGUAGCAAUAUUACGGGUA into the appropriate category?
bucket B

Would you mind sorting CAAAAGCAAUAUUACGUAUA into the appropriate category?
bucket A

Would you mind sorting UGACAGCAAUAUUACGAUAA into the appropriate category?
bucket C

----------
# self-splicing fitness (ln) per entry
- Test Name: self-splicing fitness, log relative to wild type (ln ratio); higher = more splicing; Tetrahymena group I intron in knt gene, E. coli kanamycin selection, DiMSum; sequences stand for … in CUCUCU…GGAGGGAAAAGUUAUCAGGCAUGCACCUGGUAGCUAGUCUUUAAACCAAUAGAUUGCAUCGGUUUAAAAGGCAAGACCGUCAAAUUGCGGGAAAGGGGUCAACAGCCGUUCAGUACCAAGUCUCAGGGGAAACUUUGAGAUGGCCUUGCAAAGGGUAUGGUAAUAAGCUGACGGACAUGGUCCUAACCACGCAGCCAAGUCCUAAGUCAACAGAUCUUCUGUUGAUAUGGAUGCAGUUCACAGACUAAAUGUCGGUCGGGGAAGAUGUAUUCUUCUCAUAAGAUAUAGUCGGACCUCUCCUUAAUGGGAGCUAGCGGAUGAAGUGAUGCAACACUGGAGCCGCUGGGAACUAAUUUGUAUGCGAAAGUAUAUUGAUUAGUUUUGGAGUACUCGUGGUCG
- Condition: 30 °C
Output: the number by itself.

Here is how some sequences turned out for self-splicing fitness (ln).
- Construct Sequence: "CGUUAGCAAUAUUACGUAGG"
  self-splicing fitness (ln): -0.104
- Construct Sequence: "AUGUAGCAAUAUUACGCUUA"
  self-splicing fitness (ln): -0.903
- Construct Sequence: "UUCGAGCAAUAUUACGGAUA"
  self-splicing fitness (ln): -2.76
- Construct Sequence: "GACCAGCAAUAUUACGAUAA"
  self-splicing fitness (ln): -1.53
- Construct Sequence: "AAAUAGCAAUAUUACGCGUC"
  self-splicing fitness (ln): -2.19
- Construct Sequence: "ACAGAGCAAUAUUACGGGGA"
  self-splicing fitness (ln): -4.66
- Construct Sequence: "AUUUAGCAAUAUUACGGGAU"
  self-splicing fitness (ln): -1.42

Would you kindly look at the next entry?
For the sequence shown here, UACUAGCAAUAUUACGGGCC , give the reported self-splicing fitness (ln).
-3.27

----------
- Test Name: self-splicing fitness, log relative to wild type (ln ratio); higher = more splicing; Tetrahymena group I intron in knt gene, E. coli kanamycin selection, DiMSum; sequences stand for … in CUCUCU…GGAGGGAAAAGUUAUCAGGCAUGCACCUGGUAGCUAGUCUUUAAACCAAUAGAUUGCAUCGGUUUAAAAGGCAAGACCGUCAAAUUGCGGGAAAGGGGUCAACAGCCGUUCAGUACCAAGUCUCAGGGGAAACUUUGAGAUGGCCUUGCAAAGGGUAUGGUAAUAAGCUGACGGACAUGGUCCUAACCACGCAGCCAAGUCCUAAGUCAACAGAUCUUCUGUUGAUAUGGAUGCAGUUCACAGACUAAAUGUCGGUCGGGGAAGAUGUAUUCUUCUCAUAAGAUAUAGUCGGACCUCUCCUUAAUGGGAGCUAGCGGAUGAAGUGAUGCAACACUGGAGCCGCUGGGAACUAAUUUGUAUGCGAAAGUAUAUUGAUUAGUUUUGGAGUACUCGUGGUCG
- Condition: 30 °C
Value Type: self-splicing fitness (ln)
Output: the number by itself.

- Construct Sequence: "AAUAAGCAAUAUUACGGUUU"
  Readout Value: -0.628

For the sequence shown here, AACGAGCAAUAUUACGUAAG , give the reported self-splicing fitness (ln).
-4.14

For the sequence shown here, ACCGAGCAAUAUUACGAUCC , give the reported self-splicing fitness (ln).
-2.86

For the sequence shown here, CGCAAGCAAUAUUACGAGCA , give the reported self-splicing fitness (ln).
-0.102

For the sequence shown here, AUAAAGCAAUAUUACGUGUG , give the reported self-splicing fitness (ln).
-1.55

For the sequence shown here, GAGCAGCAAUAUUACGUCAC , give the reported self-splicing fitness (ln).
-3.67

For the sequence shown here, UGGGAGCAAUAUUACGAUUU , give the reported self-splicing fitness (ln).
-3.39

For the sequence shown here, CUGCAGCAAUAUUACGUCGC , give the reported self-splicing fitness (ln).
-4.61

For the sequence shown here, ACCAAGCAAUAUUACGCUUG , give the reported self-splicing fitness (ln).
-2.72

For the sequence shown here, UGGUAGCAAUAUUACGCUUU , give the reported self-splicing fitness (ln).
-1.85

For the sequence shown here, AGUGAGCAAUAUUACGCAUU , give the reported self-splicing fitness (ln).
-2.55

For the sequence shown here, UCCAAGCAAUAUUACGAUUC , give the reported self-splicing fitness (ln).
-2.6

For the sequence shown here, CAAGAGCAAUAUUACGCCAC , give the reported self-splicing fitness (ln).
-2.38

For the sequence shown here, CAUCAGCAAUAUUACGAGUG , give the reported self-splicing fitness (ln).
-2.26

For the sequence shown here, GACUAGCAAUAUUACGGGAC , give the reported self-splicing fitness (ln).
-2.29

For the sequence shown here, GUUAAGCAAUAUUACGGCUA , give the reported self-splicing fitness (ln).
0.289
